- system: GSPT1 protein (Homo sapiens, UniProt P15170+Q96SW2)
- Construct: endogenous in cells; host or cells: HL-60 cells
- Sequence (P15170 whole entry): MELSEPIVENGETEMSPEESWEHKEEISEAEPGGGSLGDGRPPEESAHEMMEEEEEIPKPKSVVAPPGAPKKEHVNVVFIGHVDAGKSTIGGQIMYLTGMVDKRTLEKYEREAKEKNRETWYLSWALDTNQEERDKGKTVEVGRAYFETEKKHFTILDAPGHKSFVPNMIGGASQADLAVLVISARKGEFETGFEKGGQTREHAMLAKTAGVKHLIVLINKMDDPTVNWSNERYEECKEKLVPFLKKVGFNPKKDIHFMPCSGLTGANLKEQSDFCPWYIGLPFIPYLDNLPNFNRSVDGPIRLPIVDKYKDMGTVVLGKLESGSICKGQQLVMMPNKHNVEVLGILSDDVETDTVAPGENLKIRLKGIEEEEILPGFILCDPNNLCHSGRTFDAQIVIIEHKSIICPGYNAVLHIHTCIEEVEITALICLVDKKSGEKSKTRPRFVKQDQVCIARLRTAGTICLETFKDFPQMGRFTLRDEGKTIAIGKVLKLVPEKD
- Sequence (Q96SW2 whole entry): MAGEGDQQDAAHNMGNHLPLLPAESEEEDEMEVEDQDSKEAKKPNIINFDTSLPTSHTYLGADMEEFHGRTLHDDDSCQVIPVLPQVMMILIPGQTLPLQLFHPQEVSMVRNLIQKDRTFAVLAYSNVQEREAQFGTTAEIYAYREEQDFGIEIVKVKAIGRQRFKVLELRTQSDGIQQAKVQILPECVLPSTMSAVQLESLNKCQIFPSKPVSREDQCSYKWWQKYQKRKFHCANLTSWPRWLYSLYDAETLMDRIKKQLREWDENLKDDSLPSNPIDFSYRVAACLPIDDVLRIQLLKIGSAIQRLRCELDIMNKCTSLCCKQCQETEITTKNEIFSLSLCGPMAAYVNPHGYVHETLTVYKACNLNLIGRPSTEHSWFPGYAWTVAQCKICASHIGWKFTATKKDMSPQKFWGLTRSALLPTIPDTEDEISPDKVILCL
- Sequence (Q16531 whole entry partner): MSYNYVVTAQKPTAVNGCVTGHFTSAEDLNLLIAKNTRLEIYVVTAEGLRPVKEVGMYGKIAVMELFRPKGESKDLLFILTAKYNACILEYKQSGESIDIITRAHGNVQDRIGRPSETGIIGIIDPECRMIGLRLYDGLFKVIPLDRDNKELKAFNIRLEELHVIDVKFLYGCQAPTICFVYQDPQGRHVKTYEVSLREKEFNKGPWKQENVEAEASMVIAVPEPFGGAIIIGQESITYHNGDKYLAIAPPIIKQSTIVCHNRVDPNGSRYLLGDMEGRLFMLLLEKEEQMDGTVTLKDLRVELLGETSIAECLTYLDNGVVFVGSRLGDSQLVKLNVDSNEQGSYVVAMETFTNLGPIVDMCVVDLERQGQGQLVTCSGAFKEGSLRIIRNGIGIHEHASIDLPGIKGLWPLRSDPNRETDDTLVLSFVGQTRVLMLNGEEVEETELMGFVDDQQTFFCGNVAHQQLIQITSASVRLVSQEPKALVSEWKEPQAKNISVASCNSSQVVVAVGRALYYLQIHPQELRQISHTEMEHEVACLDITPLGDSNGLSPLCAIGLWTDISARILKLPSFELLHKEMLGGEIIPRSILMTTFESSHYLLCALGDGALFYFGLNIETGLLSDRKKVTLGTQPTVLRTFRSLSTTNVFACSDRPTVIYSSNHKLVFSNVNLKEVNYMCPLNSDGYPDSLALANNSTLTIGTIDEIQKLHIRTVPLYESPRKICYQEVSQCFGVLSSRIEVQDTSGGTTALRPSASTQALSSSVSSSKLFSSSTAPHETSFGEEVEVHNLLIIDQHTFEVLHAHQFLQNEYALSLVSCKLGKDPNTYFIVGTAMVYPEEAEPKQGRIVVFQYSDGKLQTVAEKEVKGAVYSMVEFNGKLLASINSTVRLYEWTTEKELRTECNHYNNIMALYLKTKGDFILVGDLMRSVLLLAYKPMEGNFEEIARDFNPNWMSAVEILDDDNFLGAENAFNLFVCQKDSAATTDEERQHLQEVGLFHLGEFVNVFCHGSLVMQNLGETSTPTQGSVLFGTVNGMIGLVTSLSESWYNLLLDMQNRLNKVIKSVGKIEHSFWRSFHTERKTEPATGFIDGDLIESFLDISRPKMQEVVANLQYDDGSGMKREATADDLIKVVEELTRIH
- protocolDescription: GSPT1 degradation assay (western blot) in HL-60 cells
- Format: cell-based
- measurementSetup: GSPT1 protein level, 0.1 μM compound, 2h incubation, western blot normalized to beta-Actin
recordedEndpoint: inhibition at 0.1 µM (%)

>  <compound>
CCc1c[nH]c2ccc(-c3cccc(N4CCCN(CCC5CN(c6ccc7c(c6)C(=O)N(C6CCC(=O)NC6=O)C7=O)C5)C4=O)c3)c(Cl)c12 (stereo not drawn)

>  <inhibition at 0.1 µM [%]>
63

$$$$
>  <compound>
O=C1CCC(N2C(=O)c3ccc(N4CCC(CN5CCN(Cc6ccc(F)cc6)C5=O)CC4)cc3C2=O)C(=O)N1 (stereo not drawn)

>  <inhibition at 0.1 µM [%]>
36

$$$$
>  <compound>
O=C1CCC(N2C(=O)c3ccc(N4CC(CCN5CCCN(c6cccc(-c7cnc8c(cnn8C8CC8)c7)c6)C5=O)C4)cc3C2=O)C(=O)N1 (stereo not drawn)

>  <inhibition at 0.1 µM [%]>
29

$$$$
>  <compound>
O=C1CCC(N2C(=O)c3ccc(N4CC(CCN5CCCN(c6cccc(-c7cnc8[nH]ncc8c7)c6)C5=O)C4)cc3C2=O)C(=O)N1 (stereo not drawn)

>  <inhibition at 0.1 µM [%]>
55

$$$$

(a) O=C1CCC(N2C(=O)c3ccc(N4CCC(CN5CCCN(c6cccc(C7CC7)c6)C5=O)CC4)cc3C2=O)C(=O)N1 (stereo not drawn)
(b) O=C1CCC(N2C(=O)c3cc(F)c(N4CCC(CCN5CCCN(c6cccc(-c7cnc8[nH]cc(C9CC9)c8c7Cl)c6)C5=O)CC4)cc3C2=O)C(=O)N1 (stereo not drawn)
Data request: Form: Entry with minimum inhibition at 0.1 µM (choose one): a / b Answer by quoting the chosen item's label.
Data returned: a
(a: 30%, b: 45%)

----------
- system: GSPT1 protein (Homo sapiens, UniProt P15170+Q96SW2)
- Construct: endogenous in cells; host or cells: HL-60 cells
- protocolDescription: GSPT1 degradation assay (western blot) in HL-60 cells
- Type: cell-based
- measurementSetup: GSPT1 protein level, 1 μM compound, 2h incubation, western blot normalized to beta-Actin
recordedEndpoint: inhibition at 1 µM (%)

# example entries with known answers
>  <compound>
CCc1c[nH]c2ccc(-c3cc(N4CCCN(CC5CCN(c6ccc7c(c6)C(=O)N(C6CCC(=O)NC6=O)C7=O)CC5)C4=O)ccn3)c(Cl)c12 (stereo not drawn) [Compound 35]

>  <inhibition at 1 µM (%)>
0

$$$$
>  <compound>
CCc1c(N)ccc(-c2cccc(N3CCCN(CC4CCN(c5ccc6c(c5)C(=O)N(C5CCC(=O)NC5=O)C6=O)CC4)C3=O)c2)c1Cl (stereo not drawn) [Compound 29]

>  <inhibition at 1 µM (%)>
47

$$$$
>  <compound>
CCc1c[nH]c2ccc(-c3cccc(N4CCCN(CCC5CN(c6ccc7c(c6)C(=O)N(C6CCC(=O)NC6=O)C7=O)C5)C4=O)c3)c(Cl)c12 (stereo not drawn) [Compound 26]

>  <inhibition at 1 µM (%)>
85

$$$$
>  <compound>
Cc1nc2ncc(-c3cccc(N4CCCN(CCC5CN(c6ccc7c(c6)C(=O)N(C6CCC(=O)NC6=O)C7=O)C5)C4=O)c3)cc2o1 (stereo not drawn) [Compound 24]

>  <inhibition at 1 µM (%)>
29

$$$$

(P) O=C1CCC(N2Cc3ccc(N4CCNC4=O)cc3C2=O)C(=O)N1 (stereo not drawn) [Compound C84971, reference compound]
(Q) CC(C)(C)N1CCCN(CC2CCN(c3ccc4c(c3)C(=O)N(C3CCC(=O)NC3=O)C4=O)CC2)C1=O (stereo not drawn) [Compound 7]
Data request: Form field 'greater inhibition at 1 µM' accepts P or Q ; which applies? Answer by quoting the chosen item's label.
Data returned: Q

----------
- system: GSPT1 protein (Homo sapiens, UniProt P15170+Q96SW2)
- Construct: endogenous in cells; host or cells: HL-60 cells
- protocolDescription: GSPT1 degradation assay (western blot) in HL-60 cells
- Format: cell-based
- measurementSetup: GSPT1 protein level, 0.1 μM compound, 2h incubation, western blot normalized to beta-Actin
recordedEndpoint: inhibition at 0.1 µM (%)

# example entries with known answers
>  <molecule>
CC(C)(C)N1CCCN(CC2CCN(c3ccc4c(c3)C(=O)N(C3CCC(=O)NC3=O)C4=O)CC2)C1=O (stereo not drawn)

>  <recordedEndpoint>
inhibition at 0.1 µM

>  <unitName>
%

>  <quantitativeResult>
0

$$$$
>  <molecule>
Nc1ccc(-c2cccc(N3CCCN(CC4CCN(c5ccc6c(c5)C(=O)N(C5CCC(=O)NC5=O)C6=O)CC4)C3=O)c2)c(Cl)n1 (stereo not drawn)

>  <recordedEndpoint>
inhibition at 0.1 µM

>  <unitName>
%

>  <quantitativeResult>
77

$$$$
>  <molecule>
CCc1c[nH]c2ccc(-c3cccc(N4CCCN(CCC5CN(c6ccc7c(c6)C(=O)N(C6CCC(=O)NC6=O)C7=O)C5)C4=O)c3)nc12 (stereo not drawn)

>  <recordedEndpoint>
inhibition at 0.1 µM

>  <unitName>
%

>  <quantitativeResult>
45

$$$$

(a) O=C1CCC(N2C(=O)c3ccc(N4CC(CCN5CCCN(c6cccc(-c7cnccc7Cl)c6)C5=O)C4)cc3C2=O)C(=O)N1 (stereo not drawn)
(b) CNC(=O)c1ccc(-c2cccc(N3CCCN(CC4CCN(c5ccc6c(c5)C(=O)N(C5CCC(=O)NC5=O)C6=O)CC4)C3=O)c2)c(Cl)c1 (stereo not drawn)
Data request: Form field 'greater inhibition at 0.1 µM' accepts a or b ; which applies? Answer by quoting the chosen item's label.
Data returned: a
(a: 70%, b: 45%)

----------
- system: GSPT1 protein (Homo sapiens, UniProt P15170+Q96SW2)
- Construct: endogenous in cells; host or cells: HL-60 cells
- protocolDescription: GSPT1 degradation assay (western blot) in HL-60 cells
- Format: cell-based
- measurementSetup: GSPT1 protein level, 0.1 μM compound, 2h incubation, western blot normalized to beta-Actin
recordedEndpoint: inhibition at 0.1 µM (%)

# example entries with known answers
>  <compound>
O=C1CCC(N2C(=O)c3ccc(N4CCC(CN5CCCN(c6ccccn6)C5=O)CC4)cc3C2=O)C(=O)N1 (stereo not shown) [Compound 4]

>  <inhibition at 0.1 µM, %>
0

$$$$
>  <compound>
O=C1CCC(N2C(=O)c3ccc(N4CC(CCN5CCCN(c6cccc(-c7cnc8ccccc8c7)c6)C5=O)C4)cc3C2=O)C(=O)N1 (stereo not shown) [Compound 23]

>  <inhibition at 0.1 µM, %>
33

$$$$

(I) O=C1CCC(N2C(=O)c3ccc(N4CCC(CN5CCCN(c6ccc7ncccc7c6)C5=O)CC4)cc3C2=O)C(=O)N1 (stereo not shown) [Compound 11]
(II) O=C1CCC(N2C(=O)c3ccc(N4CCC(CN5CCCN(Cc6ccc(F)cc6)C5=O)CC4)cc3C2=O)C(=O)N1 (stereo not shown) [Compound 16]
(III) CCc1c[nH]c2ccc(-c3cc(N4CCCN(CC5CCN(c6ccc7c(c6)C(=O)N(C6CCC(=O)NC6=O)C7=O)CC5)C4=O)ccn3)c(Cl)c12 (stereo not shown) [Compound 35]
Data request: Ascending sort, inhibition at 0.1 µM. List each label, following the requested order.
Data returned: III, I, II
(III: 0%, I: 14%, II: 26%)

(A) O=C1CCC(N2C(=O)c3ccc(N4CCC(CN5CCCN(c6cccc(-c7cnccc7Cl)c6)C5=O)CC4)cc3C2=O)C(=O)N1 (stereo not shown) [Compound 3]
(B) O=C1CCC(N2Cc3cc(N4CCC(CN5CCCN(c6ccccc6)C5=O)CC4)ccc3C2=O)C(=O)N1 (stereo not shown) [Compound 19]
Data request: Form field 'greater inhibition at 0.1 µM' accepts A or B ; which applies? Answer by quoting the chosen item's label.
Data returned: A
(A: 30%, B: 15%)

----------
- system: GSPT1 protein (Homo sapiens, UniProt P15170+Q96SW2)
- Construct: endogenous in cells; host or cells: HL-60 cells
- protocolDescription: GSPT1 degradation assay (western blot) in HL-60 cells
- Format: cell-based
- measurementSetup: GSPT1 protein level, 1 μM compound, 2h incubation, western blot normalized to beta-Actin
recordedEndpoint: inhibition at 1 µM (%)

# example entries with known answers
>  <compound>
O=C1CCC(N2C(=O)c3ccc(N4CCC(CN5CCCCN(c6ccccc6)C5=O)CC4)cc3C2=O)C(=O)N1 (centres unmarked)

>  <inhibition at 1 µM (%)>
52

$$$$
>  <compound>
CCn1ncc2ccc(-c3cccc(N4CCCN(CC5CCN(c6ccc7c(c6)C(=O)N(C6CCC(=O)NC6=O)C7=O)CC5)C4=O)c3)c(Cl)c21 (centres unmarked)

>  <inhibition at 1 µM (%)>
53

$$$$
>  <compound>
O=C1CCC(N2C(=O)c3ccc(N4CC(CCN5CCN(c6ccccc6)C5=O)C4)cc3C2=O)C(=O)N1 (centres unmarked)

>  <inhibition at 1 µM (%)>
0

$$$$
>  <compound>
O=C1CCC(N2C(=O)c3ccc(N4CCC(CN5CCCN(c6ccccc6)C5=O)CC4)cc3C2=O)C(=O)N1 (centres unmarked)

>  <inhibition at 1 µM (%)>
51

$$$$
>  <compound>
O=C1CCC(N2C(=O)c3ccc(N4CCC(CN5CCCN(c6cccc(C7CC7)c6)C5=O)CC4)cc3C2=O)C(=O)N1 (centres unmarked)

>  <inhibition at 1 µM (%)>
57

$$$$
>  <compound>
O=C1CCC(N2C(=O)c3ccc(N4CCC(CN5CCN(c6ccccc6)C5=O)CC4)cc3C2=O)C(=O)N1 (centres unmarked)

>  <inhibition at 1 µM (%)>
0

$$$$
>  <compound>
O=C1CCC(N2C(=O)c3ccc(N4CCC(CN5CCCN(Cc6ccc(F)cc6)C5=O)CC4)cc3C2=O)C(=O)N1 (centres unmarked)

>  <inhibition at 1 µM (%)>
32

$$$$
>  <compound>
CCc1c[nH]c2ncc(-c3cccc(N4CCCN(CCC5CN(c6ccc7c(c6)C(=O)N(C6CCC(=O)NC6=O)C7=O)C5)C4=O)c3)c(Cl)c12 (centres unmarked)

>  <inhibition at 1 µM (%)>
95

$$$$

(A) O=C1CCC(N2C(=O)c3ccc(N4CC(CCN5CCCN(c6cccc(-c7ccn8ccnc8c7)c6)C5=O)C4)cc3C2=O)C(=O)N1 (centres unmarked)
(B) CS(=O)(=O)c1ccc(-c2cccc(N3CCCN(CC4CCN(c5ccc6c(c5)C(=O)N(C5CCC(=O)NC5=O)C6=O)CC4)C3=O)c2)c(Cl)c1 (centres unmarked)
(C) O=C1CCC(N2C(=O)c3cc(F)c(N4CCC(CCN5CCCN(c6cccc(-c7cnc8[nH]cc(C9CC9)c8c7Cl)c6)C5=O)CC4)cc3C2=O)C(=O)N1 (centres unmarked)
(D) O=C1CCC(N2C(=O)c3ccc(N4CCC(CN5CCN(Cc6ccc(F)cc6)C5=O)CC4)cc3C2=O)C(=O)N1 (centres unmarked)
(E) O=C1CCC(N2C(=O)c3ccc(N4CCC(CN5CCCN(c6ccccn6)C5=O)CC4)cc3C2=O)C(=O)N1 (centres unmarked)
Data request: Parameters: sort_field (inhibition at 1 µM), sort_dir (desc). List each label, following the requested order.
Data returned: C, A, D, B, E

(A) O=C1CCC(N2C(=O)c3ccc(N4CC(CCN5CCCN(c6cccc(Br)c6)C5=O)C4)cc3C2=O)C(=O)N1 (centres unmarked)
(B) O=C1CCC(N2C(=O)c3ccc(N4CCC(CN5CCCN(c6cccc(Br)c6)C5=O)CC4)cc3C2=O)C(=O)N1 (centres unmarked)
(C) O=C1CCC(N2C(=O)c3ccc(N4CC(CCN5CCCN(c6cccc(-c7cnc8c(cnn8C8CC8)c7)c6)C5=O)C4)cc3C2=O)C(=O)N1 (centres unmarked)
Data request: Parameters: sort_field (inhibition at 1 µM), sort_dir (desc). List each label, following the requested order.
Data returned: A, C, B

(A) Cc1csc(N2CCCN(CC3CCN(c4ccc5c(c4)C(=O)N(C4CCC(=O)NC4=O)C5=O)CC3)C2=O)n1 (centres unmarked)
(B) O=C1CCC(N2C(=O)c3ccc(N4CC(CCN5CCCN(c6cccc(-c7cnc8[nH]ncc8c7)c6)C5=O)C4)cc3C2=O)C(=O)N1 (centres unmarked)
Data request: Form: Entry with minimum inhibition at 1 µM (choose one): A / B Answer by quoting the chosen item's label.
Data returned: A
